Just for reference, PubChem BioAssay AID248 is where these values come from.

Tested on: L1210 leukemia ip in BDF1 mice, survival T/C
protocol: NCI In Vivo Anticancer Drug Screen. Data for tumor model L1210 Leukemia (intraperitoneal) in B6D2F1 (BDF1) mice
test-parameters: endpoint: mean survival time; dose: 200.0 mg/kg/injection; schedule: Q04DX003 (ip); vehicle: acetone; higher = longer survival
Experimental: The antitumor activity of compounds was measured in mice bearing transplantable tumors. Survival or tumor size were measured and the results are expressed as the measurement made in the treated group (T) divided by the measurement made in the vehicle treated control group (C). The tumor model used in this assay is L1210 Leukemia (intraperitoneal) in B6D2F1 (BDF1) mice
Toxic doses and inconclusive results are not listed.
Consider the following compounds; for each one, report its T/C.

// each compound listed below needs its T/C
1. CC1OCC(C)(CO)CO1 (configuration not stated)
2. OCN(CO)c1ccc2c(c1)Cc1cc(F)ccc1-2
3. CC(OC(=O)c1ccccc1)C(N)=S (configuration not stated)
4. C#CCCCCCCC#CCCCCCCC#C
5. CC1(CO)COCOC1
6. COC1=CCC2=C(CCO2)C1
7. C/C(=C\Cl)COC1CCCCO1 (configuration not stated)

## Result
122 % of control
98 % of control
102 % of control
110 % of control
105 % of control
95 % of control
101 % of control
